Recorded IC50, one value per entry.
Target: human integrin αvβ3 (Homo sapiens, UniProt P05106+P06756)
Type: binding
Settings: SD
Report the value in nM with no unit label.

# count of solved cases: 2
COMPOUND: COc1ccc(C[C@H]2NC(=O)/C=C/C[C@@H]([C@H](C)[C@@H](OC(=O)CNC(=O)OCc3ccc(NC(=O)[C@H](C)NC(=O)[C@@H](NC(=O)CCc4cn(CCOCCOCCOCCOCC(=O)NCc5ccc(CN6C(=O)[C@H]7CC(=O)N[C@H](C(=O)O)CC(=O)NCC(=O)N[C@@H](CCCNC(=N)N)C(=O)NC[C@H]6C(=O)N7)cc5)nn4)C(C)C)cc3)[C@@H](Cl)c3ccccc3)OC(=O)[C@H](CC(C)C)OC(=O)C(C)(C)CNC2=O)cc1Cl [compound 11]
PROPERTY MEASURED: IC50
UNITS LABEL: nM
READOUT NUMBER: 5.5
--
COMPOUND: COc1ccc(C[C@H]2NC(=O)/C=C/C[C@@H]([C@H](C)[C@@H](OC(=O)CNC(=O)CCc3cn(CCOCCOCCOCCOCC(=O)NCc4ccc(CN5C(=O)[C@H]6CC(=O)N[C@@H](CCCNC(=N)N)C(=O)NCC(=O)N[C@@H](CC(=O)O)C(=O)NC[C@H]5C(=O)N6)cc4)nn3)[C@@H](Cl)c3ccccc3)OC(=O)[C@H](CC(C)C)OC(=O)C(C)(C)CNC2=O)cc1Cl [compound 13, cyclo[DKP‐RGD]‐PEG4‐uncl‐Cry‐55gly]
PROPERTY MEASURED: IC50
UNITS LABEL: nM
READOUT NUMBER: 24.1

Next compound, please.
IC50 lookup needed for COc1ccc(C[C@H]2NC(=O)/C=C/C[C@@H]([C@H](C)[C@@H](OC(=O)CNC(=O)CCc3cn(CCOCCOCCOCCOCC(=O)NCc4ccc(CN5C(=O)[C@H]6CC(=O)N[C@H](C(=O)O)CC(=O)NCC(=O)N[C@@H](CCCNC(=N)N)C(=O)NC[C@H]5C(=O)N6)cc4)nn3)[C@@H](Cl)c3ccccc3)OC(=O)[C@H](CC(C)C)OC(=O)C(C)(C)CNC2=O)cc1Cl [compound 14, cyclo[DKP‐isoDGR]‐PEG4‐uncl‐Cry‐55gly] , thanks. 10.2

* * *

Target: integrin α5β1 (Homo sapiens, UniProt P05556+P08648)
Assay: Integrin α5β1 binding assay
PROPERTY MEASURED: pIC50
# pIC50 is unitless: minus log10 of the molar concentration; print number only

pIC50 lookup needed for N=C(N)NCCC[C@@H]1NC(=O)CNC(=O)C[C@@H](C(=O)O)NC(=O)C[C@H]2NC(=O)[C@H](CNC1=O)N(Cc1ccccc1)C2=O [compound 3, cyclo[DKP‐isoDGR]] , thanks. 5.97

* * *

Molecular target: human integrin αvβ3 (Homo sapiens, UniProt P05106+P06756)
Settings: SD
PROPERTY MEASURED: pIC50
# pIC50 is unitless: minus log10 of the molar concentration; print number only

pIC50 lookup needed for COc1ccc(C[C@H]2NC(=O)/C=C/C[C@@H]([C@H](C)[C@@H](OC(=O)CNC(=O)OCc3ccc(NC(=O)[C@H](C)NC(=O)[C@@H](NC(=O)CCc4cn(CCOCCOCCOCCOCC(=O)NCc5ccc(CN6C(=O)[C@H]7CC(=O)N[C@@H](CCCNC(=N)N)C(=O)NCC(=O)N[C@@H](CC(=O)O)C(=O)NC[C@H]6C(=O)N7)cc5)nn4)C(C)C)cc3)[C@@H](Cl)c3ccccc3)OC(=O)[C@H](CC(C)C)OC(=O)C(C)(C)CNC2=O)cc1Cl , thanks. 8.14
